B1: USP39 (parent)
chain: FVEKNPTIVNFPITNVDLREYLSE

variants of: B1; test: protein stability index of a GFP-peptide fusion (GPS, HEK-293T) (PSI 1-6); higher = more stable; details: c terminus: a fixed tail appended;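 note: lentivirally expressed fusions sorted by FACS into six bins by GFP to DsRed ratio, PSI derived from sequencing read proportions per bin multiplied by bin number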
Outcome: 1.0 for protein stability index of at least 2; 0.0 for anything lower.

mutantCode: F11W
assignedLabel: 0.0

We now examine a further variant.
Reported protein stability index reaches at least 2 for E24P ?
1.0
